- assay_overview: Tmax in cynomolgus monkey at 10 mg/kg, po
- Assay type: ADME, organism-based, Macaca fascicularis
- reported_conditions: in vivo

{"cpd_smiles": "COc1cc(-n2cnc3cc(-c4ccc(Cl)cc4)sc3c2=O)ccc1OCC1(OP(=O)(O)O)CC(F)(F)C1", "Tmax, h": 10.7}

----------
- assay_overview: Lipophilicity, log P of the compound at pH 7 by HPLC analysis
- Assay type: physicochemical
- reported_conditions: buffer
outcome_measure: logP

{"cpd_smiles": "COc1cc(-n2cnc3cc(-c4ccc(Cl)cc4)sc3c2=O)ccc1OCC1(O)CCOCC1", "outcome_measure": "logP", "value_measured": 4.2}
{"cpd_smiles": "COc1cc(-n2cnc3cc(-c4ccc(Cl)cc4)sc3c2=O)ccc1OCC1(O)CCC1", "outcome_measure": "logP", "value_measured": 4.7}
{"cpd_smiles": "COc1cc(-n2cnc3cc(-c4ccc(Cl)cc4)sc3c2=O)ccc1OCC1(O)CC1", "outcome_measure": "logP", "value_measured": 4.1}
{"cpd_smiles": "COc1cc(-n2cnc3cc(-c4ccc(Cl)cc4)sc3c2=O)ccc1OCC1(O)COC1", "outcome_measure": "logP", "value_measured": 3.8}
{"cpd_smiles": "COc1cc(-n2cnc3cc(-c4ccc(Cl)cc4)sc3c2=O)ccc1OCC1(O)CCCC1", "outcome_measure": "logP", "value_measured": 4.7}
{"cpd_smiles": "COc1cc(-n2cnc3cc(-c4ccc(Cl)cc4)sc3c2=O)ccc1OCC1(O)CC(F)(F)C1", "outcome_measure": "logP", "value_measured": 4.8}
{"cpd_smiles": "COc1cc(-n2cnc3cc(-c4ccc(Cl)cc4)sc3c2=O)ccc1OCC(C)(C)O", "outcome_measure": "logP", "value_measured": 4.5}

----------
- assay_overview: Binding affinity to cynomolgus monkey MCHR1
- Set-up: species or system Macaca fascicularis

{"cpd_smiles": "COc1cc(-n2cnc3cc(-c4ccc(Cl)cc4)sc3c2=O)ccc1OCC1(O)CC(F)(F)C1", "Ki": "4.9 nM"}

----------
- target_entity: L-type calcium channel (Homo sapiens, UniProt O60840+Q01668+Q13698+Q13936)
- assay_overview: Inhibition of L-type calcium channel (unknown origin) at 10 uM

{"cpd_smiles": "COc1cc(-n2cnc3cc(-c4ccc(Cl)cc4)sc3c2=O)ccc1OCC1(O)CC(F)(F)C1", "target_entity": "L-type calcium channel (Homo sapiens, UniProt O60840+Q01668+Q13698+Q13936)", "inhibition at 10 µM": "15%"}

----------
- assay_overview: Metabolic stability in mouse liver microsomes assessed as compound remaining at 3 uM measured after 10 min
- Assay type: ADME
- reported_conditions: read-out: Stability
outcome_measure: remaining at 10 min, 3 µM (%)

{"cpd_smiles": "COc1cc(-n2cnc3cc(-c4ccc(Cl)cc4)sc3c2=O)ccc1OCC1(O)CC(F)(F)C1", "unit_of_measurement": "%", "value_measured": 100}
{"cpd_smiles": "COc1cc(-n2cnc3cc(-c4ccc(Cl)cc4)sc3c2=O)ccc1OCC1(O)COC1", "unit_of_measurement": "%", "value_measured": 100}
{"cpd_smiles": "COc1cc(-n2cnc3cc(-c4ccc(Cl)cc4)sc3c2=O)ccc1OCC1(O)CC1", "unit_of_measurement": "%", "value_measured": 99}
{"cpd_smiles": "COc1cc(-n2cnc3cc(-c4ccc(Cl)cc4)sc3c2=O)ccc1OCC1(O)CCOCC1", "unit_of_measurement": "%", "value_measured": 98}
{"cpd_smiles": "COc1cc(-n2cnc3cc(-c4ccc(Cl)cc4)sc3c2=O)ccc1OCC(C)(C)O", "unit_of_measurement": "%", "value_measured": 90}

----------
Measured concentration at 8 h, listed per entry for reference.
- assay_overview: Plasma concentration in Sprague-Dawley rat assessed as parent compound level at 10 mg/kg, po measured after 8 hrs
- Format: ADME, organism-based
outcome_measure: concentration at 8 h (nM)

{"cpd_smiles": "COc1cc(-n2cnc3cc(-c4ccc(Cl)cc4)sc3c2=O)ccc1OCC1(OC(=O)CN)CC(F)(F)C1", "outcome_measure": "concentration at 8 h", "unit_of_measurement": "nM", "value_measured": 4500}
{"cpd_smiles": "COc1cc(-n2cnc3cc(-c4ccc(Cl)cc4)sc3c2=O)ccc1OCC1(OC(=O)CN)CCC1", "outcome_measure": "concentration at 8 h", "unit_of_measurement": "nM", "value_measured": 15}
{"cpd_smiles": "COc1cc(-n2cnc3cc(-c4ccc(Cl)cc4)sc3c2=O)ccc1OCC1(OC(=O)CN)CC1", "outcome_measure": "concentration at 8 h", "unit_of_measurement": "nM", "value_measured": 113}
{"cpd_smiles": "COc1cc(-n2cnc3cc(-c4ccc(Cl)cc4)sc3c2=O)ccc1OCC1(OC(=O)CN)COC1", "outcome_measure": "concentration at 8 h", "unit_of_measurement": "nM", "value_measured": 1160}
{"cpd_smiles": "COc1cc(-n2cnc3cc(-c4ccc(Cl)cc4)sc3c2=O)ccc1OCC(C)(C)O", "outcome_measure": "concentration at 8 h", "unit_of_measurement": "nM", "value_measured": 3530}

----------
- assay_overview: AUC in Sprague-Dawley rat assessed as parent compound level at 10 mg/kg, po measured after 8 hrs
- Assay type: ADME, organism-based
- Parameters: dose 10 mg/kg, time < 8 hr, route oral
- reported_conditions: in vivo
Measured AUC, listed per entry for reference.

{"cpd_smiles": "COc1cc(-n2cnc3cc(-c4ccc(Cl)cc4)sc3c2=O)ccc1OCC1(OC(=O)CN)CCC1", "AUC / µM·h": 1.3}
{"cpd_smiles": "COc1cc(-n2cnc3cc(-c4ccc(Cl)cc4)sc3c2=O)ccc1OCC1(OC(=O)CN)CC1", "AUC / µM·h": 5.9}
{"cpd_smiles": "COc1cc(-n2cnc3cc(-c4ccc(Cl)cc4)sc3c2=O)ccc1OCC1(OC(=O)CN)COC1", "AUC / µM·h": 34.9}
{"cpd_smiles": "COc1cc(-n2cnc3cc(-c4ccc(Cl)cc4)sc3c2=O)ccc1OCC1(OC(=O)CN)CC(F)(F)C1", "AUC / µM·h": 38.1}

----------
- assay_overview: Plasma concentration in DIO Sprague-Dawley rat assessed as parent compound level at 3 mg/kg, po for 28 days measured after 24 hrs
outcome_measure: concentration at 24 h (µM)

{"cpd_smiles": "COc1cc(-n2cnc3cc(-c4ccc(Cl)cc4)sc3c2=O)ccc1OCC1(OP(=O)(O)O)CC(F)(F)C1", "value_measured": 14.4}

----------
Measured fraction unbound at 96 h, listed per entry for reference.
- assay_overview: Protein binding in Sprague-Dawley rat plasma at 10 mg/kg, po qd for 4 days
- Format: ADME, organism-based
- reported_conditions: read-out: PPB

{"cpd_smiles": "COc1cc(-n2cnc3cc(-c4ccc(Cl)cc4)sc3c2=O)ccc1OCC1(O)COC1", "fraction unbound at 96 h": "< 0.02"}
{"cpd_smiles": "COc1cc(-n2cnc3cc(-c4ccc(Cl)cc4)sc3c2=O)ccc1OCC1(O)CCOCC1", "fraction unbound at 96 h": "< 0.02"}
{"cpd_smiles": "COc1cc(-n2cnc3cc(-c4ccc(Cl)cc4)sc3c2=O)ccc1OCC1(O)CC1", "fraction unbound at 96 h": "< 0.02"}
{"cpd_smiles": "COc1cc(-n2cnc3cc(-c4ccc(Cl)cc4)sc3c2=O)ccc1OCC1(O)CCC1", "fraction unbound at 96 h": "< 0.02"}
{"cpd_smiles": "COc1cc(-n2cnc3cc(-c4ccc(Cl)cc4)sc3c2=O)ccc1OCC1(O)CCCC1", "fraction unbound at 96 h": "< 0.02"}
{"cpd_smiles": "COc1cc(-n2cnc3cc(-c4ccc(Cl)cc4)sc3c2=O)ccc1OCC1(O)CC(F)(F)C1", "fraction unbound at 96 h": "< 0.02"}

----------
- assay_overview: Volume of distribution at steady state in dog at 1 mg/kg, iv
- Type: ADME, organism-based, Canis lupus familiaris
- reported_conditions: in vivo, read-out: Vdss

{"cpd_smiles": "COc1cc(-n2cnc3cc(-c4ccc(Cl)cc4)sc3c2=O)ccc1OCC1(O)CC(F)(F)C1", "Vd": "7.2 L/kg"}

----------
- assay_overview: Metabolic stability in rat liver microsomes assessed as compound remaining at 3 uM measured after 10 min
- Type: ADME
- reported_conditions: read-out: Stability
We label by threshold. Values of remaining at 10 min, 3 µM strictly beneath 30% are true (1). Values of 30% and up are false (0).

{"cpd_smiles": "COc1cc(-n2cnc3cc(-c4ccc(Cl)cc4)sc3c2=O)ccc1OCC(C)(C)O", "qualitative_label": "false (0)"}
{"cpd_smiles": "COc1cc(-n2cnc3cc(-c4ccc(Cl)cc4)sc3c2=O)ccc1OCC1(O)CC(F)(F)C1", "qualitative_label": "false (0)"}
{"cpd_smiles": "COc1cc(-n2cnc3cc(-c4ccc(Cl)cc4)sc3c2=O)ccc1OCC1(O)CCC1", "qualitative_label": "true (1)"}
{"cpd_smiles": "COc1cc(-n2cnc3cc(-c4ccc(Cl)cc4)sc3c2=O)ccc1OCC1(O)CCOCC1", "qualitative_label": "true (1)"}
{"cpd_smiles": "COc1cc(-n2cnc3cc(-c4ccc(Cl)cc4)sc3c2=O)ccc1OCC1(O)COC1", "qualitative_label": "false (0)"}
{"cpd_smiles": "COc1cc(-n2cnc3cc(-c4ccc(Cl)cc4)sc3c2=O)ccc1OCC1(O)CC1", "qualitative_label": "false (0)"}
{"cpd_smiles": "COc1cc(-n2cnc3cc(-c4ccc(Cl)cc4)sc3c2=O)ccc1OCC1(O)CCCC1", "qualitative_label": "true (1)"}
